system: Rap guanine nucleotide exchange factor 4 (Homo sapiens) (UniProt Q8WZA2)
Sequence (Q8WZA2 whole entry, looked up): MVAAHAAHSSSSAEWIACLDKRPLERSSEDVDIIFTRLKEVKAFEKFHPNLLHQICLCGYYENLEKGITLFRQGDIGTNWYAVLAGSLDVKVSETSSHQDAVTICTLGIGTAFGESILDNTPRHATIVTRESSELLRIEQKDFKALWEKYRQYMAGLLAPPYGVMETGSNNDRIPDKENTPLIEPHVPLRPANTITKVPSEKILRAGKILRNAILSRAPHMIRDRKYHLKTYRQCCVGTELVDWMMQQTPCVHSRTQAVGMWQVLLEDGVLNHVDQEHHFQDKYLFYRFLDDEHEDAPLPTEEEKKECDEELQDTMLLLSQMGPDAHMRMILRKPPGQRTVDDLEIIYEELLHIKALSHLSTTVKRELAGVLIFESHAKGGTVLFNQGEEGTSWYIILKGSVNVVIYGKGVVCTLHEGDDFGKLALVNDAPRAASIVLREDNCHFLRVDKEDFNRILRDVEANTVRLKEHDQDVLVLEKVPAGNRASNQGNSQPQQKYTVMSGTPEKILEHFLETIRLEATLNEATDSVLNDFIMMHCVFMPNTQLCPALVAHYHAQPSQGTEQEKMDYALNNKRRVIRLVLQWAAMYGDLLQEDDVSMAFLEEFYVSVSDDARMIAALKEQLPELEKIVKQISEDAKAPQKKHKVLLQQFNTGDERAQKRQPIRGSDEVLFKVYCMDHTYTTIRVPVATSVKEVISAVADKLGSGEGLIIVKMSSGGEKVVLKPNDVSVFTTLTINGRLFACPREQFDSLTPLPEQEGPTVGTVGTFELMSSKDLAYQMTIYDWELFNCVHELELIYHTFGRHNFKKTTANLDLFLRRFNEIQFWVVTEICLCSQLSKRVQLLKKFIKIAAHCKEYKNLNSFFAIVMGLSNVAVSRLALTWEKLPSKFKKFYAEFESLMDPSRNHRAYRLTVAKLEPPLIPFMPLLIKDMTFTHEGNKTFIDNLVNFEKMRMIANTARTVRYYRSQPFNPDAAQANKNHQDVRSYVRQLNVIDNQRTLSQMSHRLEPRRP
test description: Confirmatory qHTS for agonist of cAMP-regulated guanine nucleotide exchange factor 4 (EPAC2) (AID 1645884);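 note: nucleotide exchange releases bodipy-GDP from Rap1 and this lowers its fluorescence; nearly all actives have a fitted effect of over 65% in size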
run parameters: EPAC2 GEF activity, Rap1B-BODIPY-GDP fluorescence; series mostly up to 154 µM
Inconclusive results are not listed. Calls of active or inactive are those of the source. Calls come from the whole dose curve; as a rule, active = well fitted activation curve with a large enough effect; inconclusive = small, poorly fitted or top-dose-only effect; inactive = no such curve, though single readings can be large or run the other way.
outcome measure: activation

> print(dat)
                                   molecule     value
1  COc1ccc(-c2cc(C(F)F)n3ncc(C(=O)N4CCc5ccccc54)c3n2)cc1  inactive
2  Cc1ccc(S(=O)(=O)N(C)C)cc1NC(=O)CSc1nc2ncc(Cl)cc2[nH]1  inactive
